Where do these numbers come from? They come from PubChem BioAssay (NCI).

Tested on: NCI-H23 lung
Experiment: NCI tumour cell line growth inhibition, 48 h

- Molecule: "COc1cc(C2CC(=O)Nc3c2ccc2ccccc32)cc(Br)c1OC (stereo unspecified)"
  TGI: "> 100 µM"
- Molecule: "COc1cccc(C2SC(C)C(=O)N2CCc2cccs2)c1 (stereo unspecified)"
  TGI: "12.1 µM"
- Molecule: "CCOC(=O)c1[nH]c2cccc3c2c1CC[C@H](NC(=O)C(F)(F)F)C3=O"
  TGI: "> 100 µM"
- Molecule: "O=C1/C(=C/c2ccccc2)NC(=S)N1CN1CCCCC1"
  TGI: "> 100 µM"
- Molecule: "N#Cc1ccc(Oc2cccc(Oc3ccccc3)c2)cc1C#N"
  TGI: "> 100 µM"
- Molecule: "CCOC(=O)C(C(=O)OCC)C(=O)c1ccccc1C(=O)c1ccccc1"
  TGI: "> 100 µM"
